- procedure-details: aqueous solubility of micronized DTSI in surfactant/amine solutions
- Assay type: physicochemical
- study-conditions: aqueous solution of 5% Cremophor RH40 and 1% tromethamine, aqueous with cosolvent or surfactant or cyclodextrin, thermodynamic from solid; micronized DTSI; 5% Cremophor RH40 and 1% tromethamine
measured-parameter: solubility at 60 min (µg/mL)
Value expressed in µg/mL; do not type the unit.

# lookup: solubility at 60 min of Cc1cn(Cc2ccc(Cl)cc2Cl)c2c(/C=C/C(=O)NS(=O)(=O)c3cc(Cl)c(Cl)s3)cc(F)cc12 [DTSI]
8700

====

- procedure-details: aqueous solubility of micronized DTSI in surfactant/amine solutions
- Format: physicochemical
- study-conditions: aqueous solution of 5% Vitamin E TPGS and 1% choline, aqueous with cosolvent or surfactant or cyclodextrin, thermodynamic from solid; micronized DTSI; 5% Vitamin E TPGS and 1% choline
measured-parameter: solubility at 60 min (mg/mL)
Value expressed in mg/mL; do not type the unit.

# lookup: solubility at 60 min of Cc1cn(Cc2ccc(Cl)cc2Cl)c2c(/C=C/C(=O)NS(=O)(=O)c3cc(Cl)c(Cl)s3)cc(F)cc12
46.6

====

- procedure-details: aqueous solubility of micronized DTSI in surfactant/amine solutions
- Assay type: physicochemical
- study-conditions: aqueous solution of 5% Cremophor RH40, aqueous with cosolvent or surfactant or cyclodextrin, thermodynamic from solid; micronized DTSI; 5% Cremophor RH40
- Description: The solubility of DTSI in aqueous PEG, cyclodextrins, glycerides and other solvent systems was evaluated. Excess amount of the DTSI was added to the aqueous compatible/complexation media, the suspension formed was sonicated for 60 minutes (and also heated up to 75° C. e.g. for cyclodextrins). The suspensions at room temperature were filtered and the amount of dissolved drug was determined by HPLC.
measured-parameter: solubility at 60 min (µg/mL)
Value expressed in µg/mL; do not type the unit.

# lookup: solubility at 60 min of Cc1cn(Cc2ccc(Cl)cc2Cl)c2c(/C=C/C(=O)NS(=O)(=O)c3cc(Cl)c(Cl)s3)cc(F)cc12
170

====

- procedure-details: aqueous solubility of micronized DTSI in surfactant/amine solutions
- Assay type: physicochemical
- study-conditions: aqueous solution of 5% Cremophor RH40 and 1% diethanolamine, aqueous with cosolvent or surfactant or cyclodextrin, thermodynamic from solid; micronized DTSI; 5% Cremophor RH40 and 1% diethanolamine
- Procedure: The solubility of DTSI in aqueous PEG, cyclodextrins, glycerides and other solvent systems was evaluated. Excess amount of the DTSI was added to the aqueous compatible/complexation media, the suspension formed was sonicated for 60 minutes (and also heated up to 75° C. e.g. for cyclodextrins). The suspensions at room temperature were filtered and the amount of dissolved drug was determined by HPLC.
measured-parameter: solubility at 60 min (mg/mL)
Value expressed in mg/mL; do not type the unit.

# lookup: solubility at 60 min of Cc1cn(Cc2ccc(Cl)cc2Cl)c2c(/C=C/C(=O)NS(=O)(=O)c3cc(Cl)c(Cl)s3)cc(F)cc12 [DTSI]
22.7

====

- procedure-details: aqueous solubility of micronized DTSI in surfactant/amine solutions
- Format: physicochemical
- study-conditions: aqueous solution of 5% Cremophor RH40 and 1% ethanolamine, aqueous with cosolvent or surfactant or cyclodextrin, thermodynamic from solid; micronized DTSI; 5% Cremophor RH40 and 1% ethanolamine
- Protocol: The solubility of DTSI in aqueous PEG, cyclodextrins, glycerides and other solvent systems was evaluated. Excess amount of the DTSI was added to the aqueous compatible/complexation media, the suspension formed was sonicated for 60 minutes (and also heated up to 75° C. e.g. for cyclodextrins). The suspensions at room temperature were filtered and the amount of dissolved drug was determined by HPLC.
measured-parameter: solubility at 60 min (µg/mL)
Value expressed in µg/mL; do not type the unit.

# lookup: solubility at 60 min of Cc1cn(Cc2ccc(Cl)cc2Cl)c2c(/C=C/C(=O)NS(=O)(=O)c3cc(Cl)c(Cl)s3)cc(F)cc12
8900

====

- procedure-details: aqueous solubility of micronized DTSI in surfactant/amine solutions
- Format: physicochemical
- study-conditions: aqueous solution of 5% Vitamin E TPGS and 5% diethanolamine, aqueous with cosolvent or surfactant or cyclodextrin, thermodynamic from solid; micronized DTSI; 5% Vitamin E TPGS and 5% diethanolamine
measured-parameter: solubility at 60 min (mg/mL)
Value expressed in mg/mL; do not type the unit.

# lookup: solubility at 60 min of Cc1cn(Cc2ccc(Cl)cc2Cl)c2c(/C=C/C(=O)NS(=O)(=O)c3cc(Cl)c(Cl)s3)cc(F)cc12 [DTSI]
58.5

====

- procedure-details: aqueous solubility of micronized DTSI in surfactant/amine solutions
- Format: physicochemical
- study-conditions: aqueous with cosolvent or surfactant or cyclodextrin, thermodynamic from solid; micronized DTSI; 5% Vitamin E TPGS and 0.5% diethanolamine
measured-parameter: solubility at 60 min (mg/mL)
Value expressed in mg/mL; do not type the unit.

# lookup: solubility at 60 min of Cc1cn(Cc2ccc(Cl)cc2Cl)c2c(/C=C/C(=O)NS(=O)(=O)c3cc(Cl)c(Cl)s3)cc(F)cc12
15.6

====

- procedure-details: aqueous solubility of micronized DTSI in surfactant/amine solutions
- Type: physicochemical
- study-conditions: aqueous solution of 5% Vitamin E TPGS, aqueous with cosolvent or surfactant or cyclodextrin, thermodynamic from solid; micronized DTSI; 5% Vitamin E TPGS
measured-parameter: solubility at 60 min (µg/mL)
Value expressed in µg/mL; do not type the unit.

# lookup: solubility at 60 min of Cc1cn(Cc2ccc(Cl)cc2Cl)c2c(/C=C/C(=O)NS(=O)(=O)c3cc(Cl)c(Cl)s3)cc(F)cc12
100

====

- procedure-details: aqueous solubility of micronized DTSI in surfactant/amine solutions
- Type: physicochemical
- study-conditions: aqueous solution of 5% Cremophor RH40 and 1% triethanolamine, aqueous with cosolvent or surfactant or cyclodextrin, thermodynamic from solid; micronized DTSI; 5% Cremophor RH40 and 1% triethanolamine
measured-parameter: solubility at 60 min (µg/mL)
Value expressed in µg/mL; do not type the unit.

# lookup: solubility at 60 min of Cc1cn(Cc2ccc(Cl)cc2Cl)c2c(/C=C/C(=O)NS(=O)(=O)c3cc(Cl)c(Cl)s3)cc(F)cc12
8300

====

- procedure-details: aqueous solubility of micronized DTSI in surfactant/amine solutions
- Format: physicochemical
- study-conditions: aqueous solution of 5% Vitamin E TPGS and 1% triethanolamine, aqueous with cosolvent or surfactant or cyclodextrin, thermodynamic from solid; micronized DTSI; 5% Vitamin E TPGS and 1% triethanolamine
measured-parameter: solubility at 60 min (µg/mL)
Value expressed in µg/mL; do not type the unit.

# lookup: solubility at 60 min of Cc1cn(Cc2ccc(Cl)cc2Cl)c2c(/C=C/C(=O)NS(=O)(=O)c3cc(Cl)c(Cl)s3)cc(F)cc12
9200

====

- procedure-details: aqueous solubility of micronized DTSI in surfactant/amine solutions
- Type: physicochemical
- study-conditions: aqueous solution of 5% Vitamin E TPGS and 1% diethanolamine, aqueous with cosolvent or surfactant or cyclodextrin, thermodynamic from solid; micronized DTSI; 5% Vitamin E TPGS and 1% diethanolamine
measured-parameter: solubility at 60 min (mg/mL)
Value expressed in mg/mL; do not type the unit.

# lookup: solubility at 60 min of Cc1cn(Cc2ccc(Cl)cc2Cl)c2c(/C=C/C(=O)NS(=O)(=O)c3cc(Cl)c(Cl)s3)cc(F)cc12
20.4

====

- procedure-details: aqueous solubility of micronized DTSI in surfactant/amine solutions
- Type: physicochemical
- study-conditions: aqueous solution of 5% Vitamin E TPGS and 1% tromethamine, aqueous with cosolvent or surfactant or cyclodextrin, thermodynamic from solid; micronized DTSI; 5% Vitamin E TPGS and 1% tromethamine
measured-parameter: solubility at 60 min (µg/mL)
Value expressed in µg/mL; do not type the unit.

# lookup: solubility at 60 min of Cc1cn(Cc2ccc(Cl)cc2Cl)c2c(/C=C/C(=O)NS(=O)(=O)c3cc(Cl)c(Cl)s3)cc(F)cc12
8500

====

- procedure-details: aqueous solubility of micronized DTSI in surfactant/amine solutions
- Format: physicochemical
- study-conditions: aqueous solution of 5% Vitamin E TPGS and 1% ethanolamine, aqueous with cosolvent or surfactant or cyclodextrin, thermodynamic from solid; micronized DTSI; 5% Vitamin E TPGS and 1% ethanolamine
measured-parameter: solubility at 60 min (mg/mL)
Value expressed in mg/mL; do not type the unit.

# lookup: solubility at 60 min of Cc1cn(Cc2ccc(Cl)cc2Cl)c2c(/C=C/C(=O)NS(=O)(=O)c3cc(Cl)c(Cl)s3)cc(F)cc12
19.2
